- assay-system: human VDR receptor (Homo sapiens, UniProt P11473)
- Construct: expressed in transfected cells; host or cells: HeLa
- Sequence (P11473 1-427): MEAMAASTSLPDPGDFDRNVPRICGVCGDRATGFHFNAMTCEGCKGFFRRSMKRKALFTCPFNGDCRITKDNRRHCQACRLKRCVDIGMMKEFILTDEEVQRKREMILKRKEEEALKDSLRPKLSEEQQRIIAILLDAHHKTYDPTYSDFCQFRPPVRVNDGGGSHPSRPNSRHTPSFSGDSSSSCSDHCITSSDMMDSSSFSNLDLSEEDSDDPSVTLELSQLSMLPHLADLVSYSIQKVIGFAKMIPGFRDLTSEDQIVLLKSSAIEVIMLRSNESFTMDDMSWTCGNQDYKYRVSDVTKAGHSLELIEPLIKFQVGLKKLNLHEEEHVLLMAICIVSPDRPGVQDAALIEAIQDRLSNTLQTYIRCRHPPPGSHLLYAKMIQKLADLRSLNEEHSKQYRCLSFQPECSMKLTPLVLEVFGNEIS
- experiment-description: VDR agonist activity, co-transfection of HeLa cells with human VDR expression vector and reporter plasmid p240Hase-CAT
- Type: cell-based
- measurement-parameters: CAT reporter (rat 24-hydroxylase promoter), 18 hours of treatment
I'd appreciate it if you could supply AC50 values for the items below.
Numeric answer only, unit nM assumed.

**Q:** Query: AC50; subject: CCc1cc(CCCc2ccc(CO)c(CO)c2)ccc1OCC(O)(CC)CC [Compound of Example 3]
**A:** 1210

**Q:** # AC50 lookup, item Cc1cc(CCCc2ccc(CO)c(CO)c2)ccc1OCC(O)C(C)(C)C (stereo not shown) [Compound of Example 2]
**A:** 172

**Q:** # query: AC50 of entry CCc1cc(CCCc2ccc(CO)c(CO)c2)ccc1OCC(O)C(C)(C)C (stereo not shown) [Compound of Example 1]
**A:** 40
